# TESTED_SYSTEM: CYP2C9 (Homo sapiens)
# Sequence (P11712 whole entry): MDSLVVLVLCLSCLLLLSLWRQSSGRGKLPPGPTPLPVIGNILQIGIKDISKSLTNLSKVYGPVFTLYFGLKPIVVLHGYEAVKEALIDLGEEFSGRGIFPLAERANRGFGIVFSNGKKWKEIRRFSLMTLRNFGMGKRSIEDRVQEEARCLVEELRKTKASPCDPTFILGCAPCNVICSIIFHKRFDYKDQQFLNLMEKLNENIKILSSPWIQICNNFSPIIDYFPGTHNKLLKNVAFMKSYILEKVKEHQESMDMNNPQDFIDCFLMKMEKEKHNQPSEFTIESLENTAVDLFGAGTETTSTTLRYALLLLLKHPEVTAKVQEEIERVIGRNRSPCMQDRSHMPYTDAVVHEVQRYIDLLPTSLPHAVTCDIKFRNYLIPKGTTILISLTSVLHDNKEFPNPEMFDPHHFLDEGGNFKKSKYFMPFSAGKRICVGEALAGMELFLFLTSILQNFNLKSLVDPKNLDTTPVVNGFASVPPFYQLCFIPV
# PROTOCOL_DETAILS: CyP450 enzyme assay (P450-Glo)
# CONDITION_DESCRIPTION: recombinant human CYP enzyme, 0.001–100 μmol/L
PROPERTY_MEASURED: IC50 (nM)
Numbers only; they are read as nM.

Study these solved cases before continuing.
SMILES_ENTRY: CCn1c2ccccc2c2cc(-n3nncc3-c3ccccc3)ccc21
IC50 [nM]: 890

SMILES_ENTRY: CCn1c2ccccc2c2cc(-n3nncc3-c3cccc(C)c3)ccc21
IC50 [nM]: 870

SMILES_ENTRY: CCn1c2ccccc2c2cc(-n3nncc3-c3cccnc3)ccc21
IC50 [nM]: 1550

Next, consider the following compound.
response.value for CCn1c2ccccc2c2cc(-n3nncc3-c3cccc(OC)c3)ccc21 (field: IC50) = 670
